Settings: Ebola virus entry assay, blue channel fluorescence
Calls of active or inactive are those of the source. How the calls were made is not given here.
Respond only with the outcome that fits, drawn from active, inactive

For `CC(C)(C)C(=O)OCOC(=O)[C@@H]1N2C(=O)[C@@H](NC(=O)[C@H](N)c3ccccc3)[C@H]2SC1(C)C` , which call appears in the assay record? active

For COc1cccc(CCc2ccccc2OCC(CN(C)C)OC(=O)CCC(=O)O)c1 (centres undefined) , which call appears in the assay record? active

For CC(C)(C)NCC(O)COc1cccc2c1CCC(=O)N2 (centres undefined) , which call appears in the assay record? inactive

For `COC(=O)[C@H]1[C@H]2C[C@@H]3c4[nH]c5cc(OC)ccc5c4CCN3C[C@H]2C[C@@H](OC(=O)/C=C/c2ccc(O)c(OC)c2)[C@@H]1OC` , which call appears in the assay record? active

For CCN[C@@H]1C[C@H](N)[C@@H](OC2OC(CN)=CCC2N)[C@H](O)[C@H]1O[C@H]1OC[C@](C)(O)[C@H](NC)[C@H]1O (some centres undefined) , which call appears in the assay record? inactive

For `CC(=O)OCC(=O)[C@@]1(O)CC[C@H]2[C@@H]3CCC4=CC(=O)C=C[C@]4(C)[C@H]3[C@@H](O)C[C@@]21C` , which call appears in the assay record? inactive

For `COCC(=O)O[C@]1(CCN(C)CCCc2nc3ccccc3[nH]2)CCc2cc(F)ccc2[C@@H]1C(C)C` , which call appears in the assay record? active

For `Cc1ccc2nc(N)[nH]c(=O)c2c1Sc1ccncc1` , which call appears in the assay record? inactive

For `O=S1(=O)c2cccc3cccc(c23)N1CCCN1CCN(c2ccc(F)cc2)CC1` , which call appears in the assay record? active

====

System: CP247
Experiment: qHTS profiling for inhibitors of Plasmodium falciparum proliferation (AID 504749);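 further: 0% = DMSO vehicle and full inhibition = artemisinin control; nearly all actives have a fitted effect of over 60% in size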
Conditions: P. falciparum in erythrocytes, SYBR Green DNA, 72 h; series mostly up to 28.7 µM
Inconclusive results are not listed. Calls of active or inactive are those of the source. The call rests on the fitted dose curve; in most records, active means well fitted inhibition curve with a large enough effect; inconclusive means small, poorly fitted or top-dose-only effect; inactive means flat fitted curve, though single readings scatter.
observable: outcome

Illustrative cases are given below, each with its answer.
CNC(=O)Oc1cccc2ccccc12 ... inactive
CCN(CC)C(C)C(=O)c1ccccc1 (stereo not drawn) ... inactive
Oc1c(Br)cc(Br)cc1Br ... inactive
C[C@]12C=CC(=O)C=C1CC[C@@H]1[C@@H]2CC[C@@]2(C)[C@H]1CC[C@]2(C)O ... inactive

Value sought: outcome, system CP247, item `CCN(Cc1ccc(Cl)nc1)/C(=C/[N+](=O)[O-])NC` . Result: inactive

Value sought: outcome, system CP247, item `NCc1cccnc1` . Result: inactive

Value sought: outcome, system CP247, item CNC(=O)NC(O)C(Cl)(Cl)Cl (stereo not drawn) . Result: inactive

Value sought: outcome, system CP247, item `O=C(O)c1nn(Cc2ccc(Cl)cc2Cl)c2ccccc12` . Result: inactive

Value sought: outcome, system CP247, item CC(C)NCC(O)c1ccc(N)c(C#N)c1 (stereo not drawn) . Result: inactive

Value sought: outcome, system CP247, item `CCS(=O)(=O)C(C)(C)S(=O)(=O)CC` . Result: inactive

====

Biological target: Bile acid receptor (Homo sapiens) (UniProt Q96RI1)
Sequence (Q96RI1 whole entry, looked up): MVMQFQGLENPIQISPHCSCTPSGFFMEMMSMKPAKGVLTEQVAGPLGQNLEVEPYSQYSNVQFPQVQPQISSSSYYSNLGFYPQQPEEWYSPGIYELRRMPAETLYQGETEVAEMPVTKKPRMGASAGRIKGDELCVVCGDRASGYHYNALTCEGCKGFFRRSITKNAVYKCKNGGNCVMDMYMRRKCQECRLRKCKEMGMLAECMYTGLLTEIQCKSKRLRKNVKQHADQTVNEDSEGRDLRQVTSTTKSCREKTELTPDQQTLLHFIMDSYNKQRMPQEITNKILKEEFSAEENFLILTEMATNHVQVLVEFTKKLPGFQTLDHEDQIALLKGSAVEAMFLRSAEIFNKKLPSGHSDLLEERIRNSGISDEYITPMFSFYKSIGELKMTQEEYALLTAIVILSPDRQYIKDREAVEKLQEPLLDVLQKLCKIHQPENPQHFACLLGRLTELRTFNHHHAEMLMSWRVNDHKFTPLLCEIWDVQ
Assay: qHTS assay for small molecule agonists of farnesoid X receptor signaling (AID 588527);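 further: 0% = vehicle basal and 100% = reference agonist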
Conditions: HEK293T FXR-UAS-bla, beta-lactamase ratio, 16 h; stronger effect = higher value
Records with an inconclusive call do not appear.
observable: activation (%)
Please give a number only; it is taken to be in %.

# activation of `CNC(=O)Oc1ccc2c(c1)[C@]1(C)CCN(C)[C@@H]1N2C` = 1.98

# activation of `O=C(Nc1ccc(Cl)cc1)Nc1ccc(Cl)c(Cl)c1` = 1.41

# activation of `C[C@]12CC[C@@H]3c4ccc(O)cc4CC[C@H]3[C@@H]1CCC2=O` = 5.41

# activation of `O=C(OCc1ccccc1)c1ccc(O)cc1` = 1.11

# activation of `O=C1c2cccc(O)c2C(=O)c2c(O)cccc21` = -5

# activation of `CCNc1nc(Cl)nc(NCC)n1` = -2

# activation of `C[C@H]1C(=O)O[C@@H]2CCN3CC=C(COC(=O)[C@](C)(O)[C@]1(C)O)[C@H]23` = 2.9

# activation of `Oc1c(Cl)cc(Cl)cc1Sc1cc(Cl)cc(Cl)c1O` = -0.242

# activation of `CCOC(=O)C(C)(C)Oc1ccc(Cl)cc1` = 1.97

# activation of `CCOP(=S)(OCC)O/N=C(\C#N)c1ccccc1` = 8.69

# activation of `CCOc1ccccc1C(N)=O` = -0.664

# activation of `O=C1C(c2[nH]c3ccccc3c2O)=Nc2ccccc21` = 0.121
